tested on: Rattus norvegicus; assay: Hypoglycemic activity in 18 to 24 hrs-fasted rat assessed as reduction in blood glucose at 1 mg/kg, ip measured after 1 hr relative to saline-treated control; assay type: functional; parameters: scale not given: the % may be the effect or the level left; conditions: route intraperitoneal
Kindly apply the following: met if Activity is less than 20%, not met in every other case.

Before answering, review these 5 worked examples.
>  <molecule>
Cn1cc(C(=O)NCCC2CCN(S(=O)(=O)NC(=O)NC[C@@H]3C[C@@H]4C=C[C@@H]3C4)CC2)c(=O)n(C)c1=O (relative stereo)

>  <class>
met

$$$$
>  <molecule>
O=C(NC1CCCCC1)NS(=O)(=O)N1CCC(CCNC(=O)c2cccc3cccnc23)CC1

>  <class>
not met

$$$$
>  <molecule>
COc1ncccc1C(=O)NCCC1CCN(S(=O)(=O)NC(=O)NC[C@@H]2C[C@@H]3C=C[C@@H]2C3)CC1 (relative stereo)

>  <class>
not met

$$$$
>  <molecule>
O.O=C(NC1CCCCC1)NS(=O)(=O)N1CCC(CCNC(=O)c2cc(Cl)cc3cccnc23)CC1

>  <class>
met

$$$$
>  <molecule>
O.O=C(NC[C@@H]1C[C@@H]2C=C[C@@H]1C2)NS(=O)(=O)N1CCC(CCNC(=O)c2cc(Cl)cc3cccnc23)CC1 (relative stereo)

>  <class>
met

$$$$

// next entry
Answer whether the molecule Cn1cccc(C(=O)NCCC2CCN(S(=O)(=O)NC(=O)NC[C@@H]3C[C@@H]4C=C[C@@H]3C4)CC2)c1=O (relative stereo) has Activity strictly less than 20%
met

---

Entries and their measured Activity follow.
tested on: Rattus norvegicus; experiment: Hypoglycemic activity in 18 to 24 hrs-fasted rat assessed as reduction in blood glucose at 1 mg/kg, ip measured after 1 hr relative to saline-treated control; assay type: functional; design: scale not given: the % may be the effect or the level left; conditions: route intraperitoneal
Just the number please, in %, no unit attached.

Examples from the recorded data:
>  <molecule>
COc1ncccc1C(=O)NCCC1CCN(S(=O)(=O)NC(=O)NC23CC4CC(CC(C4)C2)C3)CC1

>  <readout_unit>
%

>  <Activity>
12

$$$$
>  <molecule>
O.O=C(NC[C@@H]1C[C@@H]2C=C[C@@H]1C2)NS(=O)(=O)N1CCC(CCNC(=O)c2cccc3cccnc23)CC1 (relative stereo)

>  <readout_unit>
%

>  <Activity>
32

$$$$
>  <molecule>
O.O=C(NC[C@@H]1C[C@@H]2C=C[C@@H]1C2)NS(=O)(=O)N1CCC(CCNC(=O)c2nc3ccccc3s2)CC1 (relative stereo)

>  <readout_unit>
%

>  <Activity>
14

$$$$
>  <molecule>
COc1ccc(Cl)cc1C(=O)NCCC1CCN(S(=O)(=O)NC(=O)NC[C@@H]2C[C@@H]3C=C[C@@H]2C3)CC1 (relative stereo)

>  <readout_unit>
%

>  <Activity>
27

$$$$

Answer with reported Activity of COc1ncccc1C(=O)NCCC1CCN(S(=O)(=O)NC(=O)NC2CCCCC2)CC1
22

Give the reported value of Activity for this record: O=C(NC[C@@H]1C[C@@H]2C=C[C@@H]1C2)NS(=O)(=O)N1CCC(CCNC(=O)c2cc(Cl)ccn2)CC1 (relative stereo)
16

For the molecule COc1ccc(Cl)cc1C(=O)NCCC1CCN(S(=O)(=O)NC(=O)NC2CCCCC2)CC1 , give its reported Activity.
39

Report Activity for CCCNC(=O)NS(=O)(=O)N1CCC(CCNC(=O)c2cc(Cl)ccc2OC)CC1
24

---

test system: Rattus norvegicus; assay: Hypoglycemic activity in 18 to 24 hrs-fasted rat assessed as reduction in blood glucose at 15 mg/kg, ip measured after 1 hr relative to saline-treated control; type: functional; parameters: scale not given: the % may be the effect or the level left; conditions: route intraperitoneal
outcome_measure: Activity (%)
Kindly answer with a numeric value in %, unit omitted.

The cases that follow already have their Activity on record.
>  <molecule>
Cn1cccc(C(=O)NCCC2CCN(S(=O)(=O)NC(=O)NC[C@@H]3C[C@@H]4C=C[C@@H]3C4)CC2)c1=O (relative stereo)

>  <readout_unit>
%

>  <Activity>
40

$$$$
>  <molecule>
O=C(NC[C@@H]1C[C@@H]2C=C[C@@H]1C2)NS(=O)(=O)N1CCC(CCNC(=O)c2cc(Cl)ccn2)CC1 (relative stereo)

>  <readout_unit>
%

>  <Activity>
46

$$$$

Could you now look at the following molecule, please?
Identify the reported Activity for the following entry. COc1ncccc1C(=O)NCCC1CCN(S(=O)(=O)NC(=O)NC2CCCCC2)CC1
35

---

system: Rattus norvegicus; assay: Hypoglycemic activity in 18 to 24 hrs-fasted rat assessed as reduction in blood glucose at 15 mg/kg, ip measured after 1 hr relative to saline-treated control; type: functional; set-up: scale not given: the % may be the effect or the level left; details: route intraperitoneal
Classify as follows. Reported Activity greater than or equal to 20%: Condition met. Reported Activity below: Condition not met.

Some solved cases for reference:
>  <molecule>
O=C(NC1CCCCC1)NS(=O)(=O)N1CCC(CCNC(=O)c2ccc3c(c2)OCO3)CC1

>  <class>
Condition not met

$$$$
>  <molecule>
O=C(NC1CCCCC1)NS(=O)(=O)N1CCC(CCNC(=O)c2cccc3c2OCCO3)CC1

>  <class>
Condition met

$$$$
>  <molecule>
CCCNC(=O)NS(=O)(=O)c1ccc(Cl)cc1 [CHLORPROPAMIDE]

>  <class>
Condition not met

$$$$
>  <molecule>
O=C(NC[C@@H]1C[C@@H]2C=C[C@@H]1C2)NS(=O)(=O)N1CCC(CCNC(=O)c2cscn2)CC1 (relative stereo)

>  <class>
Condition met

$$$$
>  <molecule>
O=C(NC[C@@H]1C[C@@H]2C=C[C@@H]1C2)NS(=O)(=O)N1CCC(CCNC(=O)c2cnsc2)CC1 (relative stereo)

>  <class>
Condition not met

$$$$

Hi, just wondering whether O=C(NC[C@@H]1C[C@@H]2C=C[C@@H]1C2)NS(=O)(=O)N1CCC(CCNC(=O)c2cccc3c2OCCO3)CC1 shows Activity of 20% or higher.
Condition met

Does the molecule CC(=O)NCCC1CCN(S(=O)(=O)NC(=O)NC[C@@H]2C[C@@H]3C=C[C@@H]2C3)CC1 (relative stereo) have recorded Activity that is 20% or more?
Condition met

Is Activity at least 20%? Consider O=C(NC[C@@H]1C[C@@H]2C=C[C@@H]1C2)NS(=O)(=O)N1CCC(CCNC(=O)c2cnccc2Cl)CC1 (relative stereo)
Condition not met

Check the entry CC#N.O=C(NC[C@@H]1C[C@@H]2CC[C@@H]1O2)NS(=O)(=O)N1CCC(CCNC(=O)c2nc3ccccc3s2)CC1 (relative stereo) : does Activity equal or exceed 20%?
Condition met

Would you say O.O=C(NC[C@@H]1C[C@@H]2C=C[C@@H]1C2)NS(=O)(=O)N1CCC(CCNC(=O)c2nc3ccccc3s2)CC1 (relative stereo) shows Activity at minimum 20%?
Condition met

Is Activity at least 20%? Consider COc1ccc(C(=O)NCCC2CCN(S(=O)(=O)NC(=O)NC[C@@H]3C[C@@H]4C=C[C@@H]3C4)CC2)cn1 (relative stereo)
Condition met

Confirm if Activity reported for the molecule O=C(NC1CCCCC1)NS(=O)(=O)N1CCC(CCNC(=O)c2nsc3ccccc23)CC1 is 20% or above.
Condition not met

---

The compounds listed here are annotated with their Activity.
system: Rattus norvegicus; experiment: Hypoglycemic activity in 18 to 24 hrs-fasted rat assessed as reduction in blood glucose at 15 mg/kg, ip measured after 1 hr relative to saline-treated control; type: functional; set-up: scale not given: the % may be the effect or the level left; conditions: route intraperitoneal
Hi! Could you send only the number? It should be in %, unit omitted.

>  <compound>
Cn1cc(C(=O)NCCC2CCN(S(=O)(=O)NC(=O)NC3CCCCC3)CC2)c(=O)n(C)c1=O

>  <outcome_measure>
Activity

>  <observed>
15

$$$$

Fill in Activity for CCCNC(=O)NS(=O)(=O)N1CCC(CCNC(=O)c2cccc3c2OCCO3)CC1 tested with Rattus norvegicus.
25

For Rattus norvegicus, give the measured Activity of the entry Cn1cc(C(=O)NCCC2CCN(S(=O)(=O)NC(=O)NC[C@@H]3C[C@@H]4C=C[C@@H]3C4)CC2)c(=O)n(C)c1=O (relative stereo)
32

Give Activity only, for CSc1ccc(C(F)(F)F)cc1C(=O)NCCC1CCN(S(=O)(=O)NC(=O)NC2CCCCC2)CC1 , using Rattus norvegicus data.
24

---

Entries and their Activity values follow.
tested on: Rattus norvegicus; assay: Hypoglycemic activity in 18 to 24 hrs-fasted rat assessed as reduction in blood glucose at 15 mg/kg, ip measured after 1 hr relative to saline-treated control; assay type: functional; set-up: scale not given: the % may be the effect or the level left; details: route intraperitoneal

>  <molecule>
O=C(NC[C@@H]1C[C@@H]2CC[C@@H]1O2)NS(=O)(=O)N1CCC(CCNC(=O)C2Oc3ccccc3O2)CC1 (relative stereo)

>  <Activity>
38%

$$$$
>  <molecule>
O=C(NC1CCCCC1)NS(=O)(=O)N1CCCCC1

>  <Activity>
19%

$$$$
>  <molecule>
Cc1ncsc1C(=O)NCCC1CCN(S(=O)(=O)NC(=O)NC[C@@H]2C[C@@H]3C=C[C@@H]2C3)CC1 (relative stereo)

>  <Activity>
25%

$$$$

Would you kindly look at the next entry?
Assign Activity to the following record: O=C(NC[C@@H]1C[C@@H]2CC[C@@H]1O2)NS(=O)(=O)N1CCC(CCNC(=O)c2cccc3c2OCCO3)CC1 (relative stereo)
13%

Origin of values: ChEMBL document CHEMBL3272242
